- System: Staphylococcus aureus
- run.description: Antibacterial activity against Staphylococcus aureus ATCC 13709 in cation adjusted Mueller-Hinton broth by […] assay
- Assay type: functional
measurement.name: MIC (µg/mL)
Supply the numeric figure in µg/mL, leaving out any unit text.

smiles_repr=CN[C@H](CC(C)C)C(=O)N[C@H]1C(=O)N[C@@H](CC(N)=O)C(=O)N[C@H]2C(=O)N[C@H]3C(=O)N[C@H](C(=O)N[C@H](C(=O)OCC(=O)Nc4ccc(CC(P(=O)(O)O)P(=O)(O)O)cc4)c4cc(O)cc(O)c4-c4cc3ccc4O)[C@H](O)c3cc(Cl)c(c(Cl)c3)Oc3cc2cc(c3O[C@H]2O[C@@H](CO)[C@@H](O)[C@H](O)[C@H]2O[C@@H]2C[C@@](C)(N)[C@@H](O)[C@@H](C)O2)Oc2ccc(cc2Cl)[C@H]1O measured_on="Staphylococcus aureus" value_observed=16

Please find the next compound below.
**Q:** Fill blank: measured MIC of the compound CN[C@H](CC(C)C)C(=O)N[C@H]1C(=O)N[C@@H](CC(N)=O)C(=O)N[C@H]2C(=O)N[C@H]3C(=O)N[C@H](C(=O)N[C@H](C(=O)OCC(=O)NC(P(=O)(O)O)P(=O)(O)O)c4cc(O)cc(O)c4-c4cc3ccc4O)[C@H](O[C@H]3C[C@](C)(N)[C@@H](O)[C@H](C)O3)c3cc(Cl)c(c(Cl)c3)Oc3cc2cc(c3O[C@H]2O[C@@H](CO)[C@@H](O)[C@H](O)[C@H]2O[C@@H]2C[C@@](C)(NCc3ccc(-c4ccc(Cl)cc4)cc3)[C@@H](O)[C@@H](C)O2)Oc2ccc(cc2Cl)[C@H]1O is ____.
**A:** 16

---

- System: Staphylococcus aureus
- run.description: Antibacterial activity against Staphylococcus aureus ATCC 13709 in cation adjusted Mueller-Hinton broth by […] assay in presence of 50% rat serum
- Assay type: functional
measurement.name: MIC (µg/mL)
Supply the numeric figure in µg/mL, leaving out any unit text.

Record excerpt, results attached:
smiles_repr=CC(C)C[C@H](C(=O)N[C@H]1C(=O)N[C@@H](CC(N)=O)C(=O)N[C@H]2C(=O)N[C@H]3C(=O)N[C@H](C(=O)N[C@H](C(=O)O)c4cc(O)cc(O)c4-c4cc3ccc4O)[C@H](O[C@H]3C[C@](C)(N)[C@@H](O)[C@H](C)O3)c3cc(Cl)c(c(Cl)c3)Oc3cc2cc(c3O[C@H]2O[C@@H](CO)[C@@H](O)[C@H](O)[C@H]2O[C@@H]2C[C@@](C)(NCc3ccc(-c4ccc(Cl)cc4)cc3)[C@@H](O)[C@@H](C)O2)Oc2ccc(cc2Cl)[C@H]1O)N(C)C(=O)OCOC(=O)CCC(P(=O)(O)O)P(=O)(O)O measurement_name=MIC value_observed=1
smiles_repr=CN[C@H](CC(C)C)C(=O)N[C@H]1C(=O)N[C@@H](CC(N)=O)C(=O)N[C@H]2C(=O)N[C@H]3C(=O)N[C@H](C(=O)N[C@H](C(=O)OCC(=O)NC(P(=O)(O)O)P(=O)(O)O)c4cc(O)cc(O)c4-c4cc3ccc4O)[C@H](O[C@H]3C[C@](C)(N)[C@@H](O)[C@H](C)O3)c3cc(Cl)c(c(Cl)c3)Oc3cc2cc(c3O[C@H]2O[C@@H](CO)[C@@H](O)[C@H](O)[C@H]2O[C@@H]2C[C@@](C)(NCc3ccc(-c4ccc(Cl)cc4)cc3)[C@@H](O)[C@@H](C)O2)Oc2ccc(cc2Cl)[C@H]1O measurement_name=MIC value_observed=2
smiles_repr=CN[C@H](CC(C)C)C(=O)N[C@H]1C(=O)N[C@@H](CC(N)=O)C(=O)N[C@H]2C(=O)N[C@H]3C(=O)N[C@H](C(=O)N[C@H](C(=O)OCC(=O)NC(P(=O)(O)O)P(=O)(O)O)c4cc(O)cc(O)c4-c4cc3ccc4O)[C@H](O)c3cc(Cl)c(c(Cl)c3)Oc3cc2cc(c3O[C@H]2O[C@@H](CO)[C@@H](O)[C@H](O)[C@H]2O[C@@H]2C[C@@](C)(N)[C@@H](O)[C@@H](C)O2)Oc2ccc(cc2Cl)[C@H]1O measurement_name=MIC value_observed=32

**Q:** Fill blank: measured MIC of the compound CN[C@H](CC(C)C)C(=O)N[C@H]1C(=O)N[C@@H](CC(N)=O)C(=O)N[C@H]2C(=O)N[C@H]3C(=O)N[C@H](C(=O)N[C@H](C(=O)OCC(=O)Nc4ccc(CC(P(=O)(O)O)P(=O)(O)O)cc4)c4cc(O)cc(O)c4-c4cc3ccc4O)[C@H](O[C@H]3C[C@](C)(N)[C@@H](O)[C@H](C)O3)c3cc(Cl)c(c(Cl)c3)Oc3cc2cc(c3O[C@H]2O[C@@H](CO)[C@@H](O)[C@H](O)[C@H]2O[C@@H]2C[C@@](C)(NCc3ccc(-c4ccc(Cl)cc4)cc3)[C@@H](O)[C@@H](C)O2)Oc2ccc(cc2Cl)[C@H]1O is ____.
**A:** 8
